Tested on: HCT-15 colon
measurement protocol: NCI tumour cell line growth inhibition, 48 h
assay readout: GI50

Task: Kindly state the measured GI50 obtained for O=c1[nH]c(F)nc2c1ncn2C1OC(CO)C(O)C1O (stereo not given) with HCT-15 colon.
Result: > 100000 nM

Task: Lab request: please report GI50 under test system HCT-15 colon for `CCOc1cc(/C=C/C(=O)C(C(=O)/C=C/c2ccc(OC(=O)CNc3nnc(C)s3)c(OCC)c2)C(=O)CNc2nnc(C)s2)ccc1OC(=O)CNc1nnc(C)s1`
Result: 2160 nM

Task: // map `O=Cc1ccc(-c2ccc(-c3ccc(C=O)o3)[se]2)o1` to recorded GI50 (system: HCT-15 colon)
Result: > 80000 nM

Task: Short answer please: GI50, HCT-15 colon, entry `O=C(NS(=O)(=O)c1ccc(NC[C@H]2COCCO2)c([N+](=O)[O-])c1)c1ccc(N2CCN(CC3=C(c4ccc(Cl)cc4)CC4(CCC4)CC3)CC2)cc1Oc1cnc2[nH]ccc2c1`
Result: 1940 nM

Task: Could you share what GI50 was measured for `CCCOc1ccc(/C=N/Nc2cc(C)nc3ccc(Cl)cc23)cc1` , tested on HCT-15 colon?
Result: 1520 nM

====

Tested on: SK-MEL-2 melanoma
measurement protocol: NCI tumour cell line growth inhibition, 48 h
Assignment: determine reported GI50 for the given compounds.

Task: # query: GI50 | item `O=C(/C=C/c1nnc2n(Cc3ccccc3)c(=O)c3c4c(sc3n12)CCCC4)c1ccccc1` | system: SK-MEL-2 melanoma
Result: 3.2 µM

Task: Recall the recorded GI50 for CCC(C)CC(C)C(=O)c1c(O)ccn(O)c1=O (stereo not given) with SK-MEL-2 melanoma and state it.
Result: 3.63 µM

Task: Checklist item: GI50 tested on SK-MEL-2 melanoma, entry Cn1c(NCC(CN2CCCC2)OC(=O)c2ccccc2)cc(=O)n(C)c1=O (stereo not given) , value?
Result: > 100 µM

Task: Notebook: pull reported GI50 for SK-MEL-2 melanoma, entry Oc1ccc(Cc2ccc(O)c(C3CC(c4ccc(Cl)cc4)=NN3)c2)cc1C1CC(c2ccc(Cl)cc2)=NN1 (stereo not given)
Result: 2.96 µM

Task: Form field: GI50 recorded for `NCCCNc1nc2ccc(Cl)cc2c2c(=O)c3cc(F)ccc3sc12` with SK-MEL-2 melanoma (enter value)
Result: 12.4 µM

Task: Please tell me: GI50 of `CCCCN(CC)CCCCCCCCCCN1CCCc2cc(OC)ccc21` , system SK-MEL-2 melanoma?
Result: 1.95 µM

Task: // lookup GI50 | system=SK-MEL-2 melanoma | key= `O=C(O)c1ccc(C(=O)O)c(C(=O)O)c1.[NH-]C1CCCCC1[NH-].[Pt+2]`
Result: 14.3 µM

Task: # query: GI50 | item CCN1C(=O)N(CC)C2C1NC(=S)N2/N=C/C=C/c1ccccc1OC (stereo not given) | system: SK-MEL-2 melanoma
Result: 1.1 µM

Task: Query the reported GI50 for SK-MEL-2 melanoma; item: `O=C1/C(=C\c2ccccc2)CN(C(=O)c2ccccc2)C/C1=C\c1ccccc1`
Result: 3.5 µM

Task: Please tell me: GI50 of Cc1cc(C(O)(c2ccc(Nc3ccccc3)cc2)c2ccc(Nc3ccc(S(=O)(=O)O)cc3)cc2)ccc1N (stereo not given) , system SK-MEL-2 melanoma?
Result: 1.55 µM

====

System: RPMI-8226 leukemia
measurement protocol: NCI tumour cell line growth inhibition, 48 h
Can you tell me TGI for the items I'm about to list?

Task: Query (compound): `CCCCCCc1cc2cc(-c3csc(/C=C/c4ccccc4)n3)c(=O)oc2cc1O` ; field requested: TGI
Result: 19.7 µM

Task: Which measured TGI value corresponds to N#CC(/C(=N/NC(N)=S)C(=O)Nc1cccc(Cl)c1)c1ccccc1 (stereo not given) ?
Result: > 100 µM

Task: Can you look up the measured TGI of Cn1c(NCC(CN2CCCC2)OC(=O)c2ccccc2)cc(=O)n(C)c1=O (stereo not given) for me?
Result: > 100 µM

Task: Item under review: `CN(CSc1ccc(Cl)cc1)c1ccc(CSc2ccc(Cl)cc2)cc1` . Reported TGI?
Result: > 100 µM

Task: Field request: TGI | item: CC(C)COP(C)(=O)C(N)(C(F)(F)F)C(F)(F)F (stereo not given)
Result: > 100 µM

Task: Need TGI of `O=C(O)c1ccc(Oc2nc3ccccc3s2)cc1` , thanks.
Result: > 100 µM

Task: Returns the measured TGI for the input compound. Input: `C=C(CCC/C(C)=C/C=C/[C@H](C)CCCc1ccoc1)C[C@@H]1OC(=O)[C@H](C)[C@@H]1O`
Result: 30.2 µM

Task: Consider the compound shown here: NC(CO)c1ccc(OCc2ccccc2)cc1 (stereo not given) What is its recorded TGI?
Result: > 100 µM

Task: // query TGI value for entry CCP(=O)(CC)C(Cl)(Cl)C(O)C(Cl)(Cl)Cl (stereo not given)
Result: > 100 µM

Task: Record request: TGI value, item `O=C([O-])CCc1ccccc1.O=C([O-])CCc1ccccc1.O=C([O-])CCc1ccccc1.O=C([O-])CCc1ccccc1.[Mo+2].[Mo+2]`
Result: > 100 µM

====

Tested on: MDA-MB-231 breast
measurement protocol: NCI tumour cell line growth inhibition, 48 h
assay readout: TGI

Task: API: value(readout= TGI, system= MDA-MB-231 breast, query= `CCCOc1ccc(/C=N/Nc2cc(C)nc3ccc(Cl)cc23)cc1` )
Result: 3.49 µM

Task: // lookup TGI | system=MDA-MB-231 breast | key= CC(Cc1cccc2c1Nc1ccccc1S2)N(C)CCO (stereo not drawn)
Result: > 100 µM

Task: State its TGI on MDA-MB-231 breast: c1ccc2nn(C3CCCO3)nc2c1 (stereo not drawn)
Result: > 100 µM

Task: Fill in the recorded TGI for this compound, with MDA-MB-231 breast as test system: `O=C(NCCc1ccccc1)c1cc(/C=C/c2cc(O)ccc2O)ccc1O`
Result: 12.9 µM

Task: Field: TGI (MDA-MB-231 breast). Entry: `C/C(=N\O)c1cccc(Nc2cc(-c3ccccc3)nc3c(O)cccc23)c1`
Result: 13.3 µM

Task: Give the reported TGI for `C=C(CCC/C(C)=C/C=C/[C@H](C)CCCc1ccoc1)C[C@@H]1OC(=O)[C@H](C)[C@@H]1O` (system: MDA-MB-231 breast).
Result: 19.4 µM

Task: Param readout= TGI; system= MDA-MB-231 breast; entry= `COC(=O)[C@@H](C)C[C@H](Cc1ccccc1)NC(=O)c1csc([C@@H](C[C@H](C(C)C)N(C)C(=O)C2(NC(=O)[C@H]3CCCCN3C)CCC2)OC(C)=O)n1` ; returns value.
Result: 0.152 µM

Task: Request body: readout TGI, system MDA-MB-231 breast, query O=c1[nH]c(F)nc2c1ncn2C1OC(CO)C(O)C1O (stereo not drawn) . Return the value.
Result: > 100 µM

====

For each of the compounds below, state its GI50.
Tested on: M14 melanoma
measurement protocol: NCI tumour cell line growth inhibition, 48 h

Task: Form field: GI50 recorded for `CCCOc1ccc(/C=N/Nc2cc(C)nc3ccc(Cl)cc23)cc1` with M14 melanoma (enter value)
Result: 1.69 µM

Task: Request: GI50, test system M14 melanoma, entry Cc1cc(C(O)(c2ccc(Nc3ccccc3)cc2)c2ccc(Nc3ccc(S(=O)(=O)O)cc3)cc2)ccc1N (stereo unspecified)
Result: 1.2 µM

Task: Hi! What's the reported GI50 for `CCOc1cc(/C=C/C(=O)C(C(=O)/C=C/c2ccc(OC(=O)CNc3nnc(C)s3)c(OCC)c2)C(=O)CNc2nnc(C)s2)ccc1OC(=O)CNc1nnc(C)s1` on M14 melanoma?
Result: 2.4 µM

Task: So what GI50 did `NC(=O)CCc1ccccc1Oc1nccc(-c2c(-c3ccc(F)cc3)ncn2C2CCNCC2)n1` get with M14 melanoma?
Result: > 25 µM

Task: Item: CC(=O)OCC1OC([Se-])C(OC(C)=O)C(OC(C)=O)C1OC(C)=O.N#CCC[PH+](CCC#N)CCC#N.[Au+] (stereo unspecified) Test system: M14 melanoma Read-out: GI50 Value: ?
Result: 3.63 µM

Task: Request: GI50, test system M14 melanoma, entry `O=C([O-])CCc1ccccc1.O=C([O-])CCc1ccccc1.O=C([O-])CCc1ccccc1.O=C([O-])CCc1ccccc1.[Mo+2].[Mo+2]`
Result: > 100 µM

Task: Requested read-out GI50, target or system M14 melanoma, entry Oc1ccc(Cc2ccc(O)c(C3CC(c4ccc(Cl)cc4)=NN3)c2)cc1C1CC(c2ccc(Cl)cc2)=NN1 (stereo unspecified)
Result: 3.93 µM

Task: Short answer please: GI50, M14 melanoma, entry `COc1cc(/C=C/C(=O)c2c(C)nc3ccccc3c2C)ccc1OCCCCOc1cc2c(cc1OC)C(=O)N1CCC[C@H]1C=N2`
Result: 1.16 µM

Task: What reported GI50 corresponds to O=c1[nH]c(F)nc2c1ncn2C1OC(CO)C(O)C1O (stereo unspecified) on M14 melanoma?
Result: > 100 µM

Task: Give M14 melanoma GI50 for `NCCCNc1nc2ccc(Cl)cc2c2c(=O)c3cc(F)ccc3sc12`
Result: 3.6 µM

Task: Under M14 melanoma: GI50 value of `FC(F)(F)c1ccc(-c2ncc(-c3ccc(C(F)(F)F)cc3)c(NCc3cc(C(F)(F)F)cc(C(F)(F)F)c3)n2)cc1` ?
Result: 4.38 µM
